# System: COR-L95 (Small Cell Lung Carcinoma);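 also: after 72 h of two-drug dosing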
# test summary: Bliss excess, mean over the matrix (fraction); higher = more synergy
Below, each entry is listed alongside its reported Bliss excess.
Simply state the number, no unit and no words.

Solved entries:
CS(=O)(=O)CCNCc1ccc(-c2ccc3ncnc(Nc4ccc(OCc5cccc(F)c5)c(Cl)c4)c3c2)o1 [Lapatinib] + NC1(c2ccc(-c3nc4ccn5c(=O)[nH]nc5c4cc3-c3ccccc3)cc2)CCC1 [MK-2206] (first compound max 10 µM, 7x7, partner max 10 µM)
0.0048
CN(CCO)CC[C@H](CSc1ccccc1)Nc1ccc(S(=O)(=O)NC(=O)c2ccc(N3CCC([C@@H](O)c4ccccc4-c4ccc(Cl)cc4)CC3)cc2)cc1S(=O)(=O)C(F)(F)F [AZD4320] + C[C@@H]1COCCN1C2=NC(=NC(=C2)C3(CC3)[S@](=N)(=O)C)C4=C5C=CNC5=NC=C4 [AZD6738] (first compound max 1 µM, 7x7, partner max 10 µM)
-0.0234

The record that follows has no Bliss excess shown yet.
Asked: Lab note: need Bliss excess for NC1(C(=O)N[C@@H](CCO)c2ccc(Cl)cc2)CCN(c2ncnc3[nH]ccc23)CC1 [Capivasertib] + Cn1cnc2c(F)c(Nc3ccc(Br)cc3Cl)c(C(=O)NOCCO)cc21 [Selumetinib] (first compound max 10 µM, 7x7, partner max 10 µM) on COR-L95 (Small Cell Lung Carcinoma), anyone have it?
Given back: -0.0359

* * *

# System: DB (B-Cell Non-Hodgkin's Lymphoma)
# test summary: combination Emax (second highest fraction inhibited in the dose matrix, 72 h); higher = more inhibition; extreme values may be limits of the assay
measure name: combination Emax
# respond with the number and nothing more

CN(CCO)CC[C@H](CSc1ccccc1)Nc1ccc(S(=O)(=O)NC(=O)c2ccc(N3CCC([C@@H](O)c4ccccc4-c4ccc(Cl)cc4)CC3)cc2)cc1S(=O)(=O)C(F)(F)F [AZD4320] + Cn1cnc2c(F)c(Nc3ccc(Br)cc3Cl)c(C(=O)NOCCO)cc21 [Selumetinib] (first compound max 1 µM, 7x7, partner max 3 µM)
0.953
COc1cccc2c1C(=O)c1c(O)c3c(c(O)c1C2=O)C[C@@](O)(C(=O)CO)C[C@@H]3O[C@H]1C[C@H](N)[C@H](O)[C@H](C)O1 [Doxorubicin] + Cc1cc2ncnn2cc1Nc1ncc2c(n1)n(C1CCOCC1)c(=O)n2C [AZD7648] (first compound max 1 µM, 7x7, partner max 10 µM)
0.896
C[C@@H](Nc1cc(F)cc(F)c1)c1cc(C(=O)N(C)C)cc2c(=O)cc(N3CCOCC3)oc12 [AZD8186] + C1CN(CCC1(C(=O)N[C@@H](CCO)C2=CC=C(C=C2)Cl)N)C3=NC=NC4=C3C=CN4 [AZD5363] (first compound max 10 µM, 7x7, partner max 10 µM)
0.0629

Next up:
Asked: Please give the measured combination Emax for this compound: COc1cccc(OCCCN)c1-c1cc(Nc2cnc(C#N)cn2)n[nH]1 [Prexasertib] + CCc1c2c(nc3ccc(O)cc13)-c1cc3c(c(=O)n1C2)COC(=O)[C@]3(O)CC [SN-38] (first compound max 1 µM, 7x7, partner max 0.3 µM)
Given back: 0.983

* * *

# Test system: SW1990 (Pancreatic Carcinoma)
# test summary: combination Emax (second highest fraction inhibited in the dose matrix, 72 h); higher = more inhibition; extreme values may be limits of the assay
combination Emax by entry:
Hey, just send me the number, nothing else.

COc1cccc(OCCCN)c1-c1cc(Nc2cnc(C#N)cn2)n[nH]1 [Prexasertib] + C=CCn1c(=O)c2cnc(Nc3ccc(N4CCN(C)CC4)cc3)nc2n1-c1cccc(C(C)(C)O)n1 [AZD1775] (first compound max 1 µM, partner max 1 µM)
0.688

Asked: Request the reported combination Emax associated with CN(CCO)CC[C@H](CSc1ccccc1)Nc1ccc(S(=O)(=O)NC(=O)c2ccc(N3CCC([C@@H](O)c4ccccc4-c4ccc(Cl)cc4)CC3)cc2)cc1S(=O)(=O)C(F)(F)F [AZD4320] + CS(=O)(=O)CCNCc1ccc(-c2ccc3ncnc(Nc4ccc(OCc5cccc(F)c5)c(Cl)c4)c3c2)o1 [Lapatinib] (first compound max 1 µM, 7x7, partner max 10 µM)
Given back: 0.302

Asked: Look at this compound and give its reported combination Emax. C[C@@H](Nc1cc(F)cc(F)c1)c1cc(C(=O)N(C)C)cc2c(=O)cc(N3CCOCC3)oc12 [AZD8186] + CC(=O)c1c(C)c2cnc(Nc3ccc(N4CCNCC4)cn3)nc2n(C2CCCC2)c1=O [Palbociclib] (first compound max 10 µM, 7x7, partner max 10 µM)
Given back: 0.267

* * *

# System: NCI-H2595 (Mesothelioma)
# test summary: combination Emax (second highest fraction inhibited in the dose matrix, 72 h); higher = more inhibition; extreme values may be limits of the assay
measure name: combination Emax
Format: numeric value only, no unit, no commentary.

# annotated cases, reported combination Emax shown
COc1cc2ncnc(Nc3ccc(F)c(Cl)c3)c2cc1OCCCN1CCOCC1 [Gefitinib] + CC(C)n1c(=O)n(C)c2cnc3cc(F)c(-c4ccc(OCCCN5CCCCC5)nc4)cc3c21 [AZD1390] (first compound max 10 µM, 7x7, partner max 0.3 µM)
0.129
CN(CCO)CC[C@H](CSc1ccccc1)Nc1ccc(S(=O)(=O)NC(=O)c2ccc(N3CCC([C@@H](O)c4ccccc4-c4ccc(Cl)cc4)CC3)cc2)cc1S(=O)(=O)C(F)(F)F [AZD4320] + CN(C)CCCOc1ccc(-c2ccc3ncc4c(c3c2)n(C2CCOCC2)c(=O)n4C)cn1 [AZD0156] (first compound max 1 µM, 7x7, partner max 1 µM)
0.12

Let us move to another entry and its combination Emax.
Asked: Any idea what combination Emax was measured for CC1(C)CCC(CN2CCN(c3ccc(C(=O)NS(=O)(=O)c4ccc(NCC5CCOCC5)c([N+](=O)[O-])c4)c(Oc4cnc5[nH]ccc5c4)c3)CC2)=C(c2ccc(Cl)cc2)C1 [Venetoclax] + CS(=O)(=O)CCNCc1ccc(-c2ccc3ncnc(Nc4ccc(OCc5cccc(F)c5)c(Cl)c4)c3c2)o1 [Lapatinib] (first compound max 1 µM, 7x7, partner max 10 µM) ?
Given back: 0.197

* * *

# Test system: JiyoyeP-2003 (Burkitt's Lymphoma)
# test summary: combination Emax (second highest fraction inhibited in the dose matrix, 72 h); higher = more inhibition; extreme values may be limits of the assay
Here, each record is paired with measured combination Emax data.
Reply briefly: the number, and no unit.

Cc1c2c(nn1C)CSCc1cc(n(C)n1)CSc1cc(c3ccccc3c1)OCCCc1c(C(=O)O)n(C)c3c-2c(Cl)ccc13 [AZD5991] + Cn1cnc2c(F)c(Nc3ccc(Br)cc3Cl)c(C(=O)NOCCO)cc21 [Selumetinib] (first compound max 1 µM, 7x7, partner max 3 µM)
0.675
CC(=O)c1c(C)c2cnc(Nc3ccc(N4CCNCC4)cn3)nc2n(C2CCCC2)c1=O [Palbociclib] + Cc1c2c(nn1C)CSCc1cc(n(C)n1)CSc1cc(c3ccccc3c1)OCCCc1c(C(=O)O)n(C)c3c-2c(Cl)ccc13 [AZD5991] (first compound max 10 µM, 7x7, partner max 1 µM)
0.588
Cc1c2c(nn1C)CSCc1cc(n(C)n1)CSc1cc(c3ccccc3c1)OCCCc1c(C(=O)O)n(C)c3c-2c(Cl)ccc13 [AZD5991] + Cc1cc2ncnn2cc1Nc1ncc2c(n1)n(C1CCOCC1)c(=O)n2C [AZD7648] (first compound max 1 µM, 7x7, partner max 10 µM)
0.784
C=CCn1c(=O)c2cnc(Nc3ccc(N4CCN(C)CC4)cc3)nc2n1-c1cccc(C(C)(C)O)n1 [AZD1775] + O=C(c1cc(Cc2n[nH]c(=O)c3ccccc23)ccc1F)N1CCN(C(=O)C2CC2)CC1 [Olaparib] (first compound max 1 µM, partner max 10 µM)
0.915

Asked: Item under review: COc1cc2ncnc(Nc3ccc(F)c(Cl)c3)c2cc1OCCCN1CCOCC1 [Gefitinib] + CC(C)n1c(=O)n(C)c2cnc3cc(F)c(-c4ccc(OCCCN5CCCCC5)nc4)cc3c21 [AZD1390] (first compound max 10 µM, 7x7, partner max 0.3 µM) . Reported combination Emax?
Given back: 0.119

Asked: Entry under review: CN(C)CCCOc1ccc(-c2ccc3ncc4c(c3c2)n(C2CCOCC2)c(=O)n4C)cn1 [AZD0156] + C[C@@H]1COCCN1C2=NC(=NC(=C2)C3(CC3)[S@](=N)(=O)C)C4=C5C=CNC5=NC=C4 [AZD6738] (first compound max 1 µM, 7x7, partner max 10 µM) . Reported combination Emax?
Given back: 0.955

Asked: So what does the record say about combination Emax for Cc1c2c(nn1C)CSCc1cc(n(C)n1)CSc1cc(c3ccccc3c1)OCCCc1c(C(=O)O)n(C)c3c-2c(Cl)ccc13 [AZD5991] + C=CCn1c(=O)c2cnc(Nc3ccc(N4CCN(C)CC4)cc3)nc2n1-c1cccc(C(C)(C)O)n1 [AZD1775] (first compound max 1 µM, partner max 1 µM) ?
Given back: 0.987

Asked: Quick one: combination Emax of CC(=O)c1c(C)c2cnc(Nc3ccc(N4CCNCC4)cn3)nc2n(C2CCCC2)c1=O [Palbociclib] + CN(CC[C@H](CSC1=CC=CC=C1)NC2=C(C=C(C=C2)S(=O)(=O)NC(=O)C3=CC=C(C=C3)N4CCC(CC4)[C@H](C5=CC=CC=C5C6=CC=C(C=C6)Cl)O)S(=O)(=O)C(F)(F)F)CCO [AZD4320] (first compound max 10 µM, 7x7, partner max 1 µM) ?
Given back: 0.795

Asked: Fill in the blank: the reported combination Emax of CC(=O)c1c(C)c2cnc(Nc3ccc(N4CCNCC4)cn3)nc2n(C2CCCC2)c1=O [Palbociclib] + CC1(C)CCC(CN2CCN(c3ccc(C(=O)NS(=O)(=O)c4ccc(NCC5CCOCC5)c([N+](=O)[O-])c4)c(Oc4cnc5[nH]ccc5c4)c3)CC2)=C(c2ccc(Cl)cc2)C1 [Venetoclax] (first compound max 10 µM, 7x7, partner max 1 µM) is ____.
Given back: 0.614

Asked: Any idea what its combination Emax is? The compound is NC1(C(=O)N[C@@H](CCO)c2ccc(Cl)cc2)CCN(c2ncnc3[nH]ccc23)CC1 [Capivasertib] + C[C@@H]1COCCN1C2=NC(=NC(=C2)C3(CC3)[S@](=N)(=O)C)C4=C5C=CNC5=NC=C4 [AZD6738] (first compound max 10 µM, 7x7, partner max 10 µM)
Given back: 0.93

Asked: Give the measured combination Emax of CN(CCO)CC[C@H](CSc1ccccc1)Nc1ccc(S(=O)(=O)NC(=O)c2ccc(N3CCC([C@@H](O)c4ccccc4-c4ccc(Cl)cc4)CC3)cc2)cc1S(=O)(=O)C(F)(F)F [AZD4320] + Cn1cnc2c(F)c(Nc3ccc(Br)cc3Cl)c(C(=O)NOCCO)cc21 [Selumetinib] (first compound max 1 µM, 7x7, partner max 3 µM) .
Given back: 0.84

Asked: Given Cc1c2c(nn1C)CSCc1cc(n(C)n1)CSc1cc(c3ccccc3c1)OCCCc1c(C(=O)O)n(C)c3c-2c(Cl)ccc13 [AZD5991] + C[C@@H](Nc1cc(F)cc(F)c1)c1cc(C(=O)N(C)C)cc2c(=O)cc(N3CCOCC3)oc12 [AZD8186] (first compound max 1 µM, 7x7, partner max 3 µM) , state its recorded combination Emax.
Given back: 0.718

Asked: Field request: combination Emax | item: CN(C)CCCOc1ccc(-c2ccc3ncc4c(c3c2)n(C2CCOCC2)c(=O)n4C)cn1 [AZD0156] + CCN(CCO)CCCOc1ccc2c(Nc3cc(CC(=O)Nc4cccc(F)c4)[nH]n3)ncnc2c1 [AZD2811] (first compound max 1 µM, 7x7, partner max 1 µM)
Given back: 0.408

Hey, just so you know, these numbers are from the supplement of paper PMC11061612.
